Assay: Induction of H2S release in PBS at pH 7.4 at 100 uM measured after 30 mins by free radical analyzer
Assay type: physicochemical
Settings: buffer, pH 7.4, 0.5 h
I'd appreciate it if you could supply Activity values for the items below.

Record excerpt, results attached:
| Molecule | Result |
| --- | --- |
| C[C@@H]1C[C@H]2[C@@H]3CCC4=CC(=O)C=C[C@]4(C)[C@@]3(F)[C@@H](O)C[C@]2(C)[C@@]1(O)C(=O)COC(=O)CN=C=S | ~ 2 uM |
| C[C@]12C=CC(=O)C=C1CC[C@@H]1[C@@H]2[C@@H](O)C[C@@]2(C)[C@H]1C[C@H]1O[C@@H](C3CCCCC3)O[C@]12C(=O)COC(=O)CN=C=S | ~ 2 uM |
| C[C@]12C=CC(=O)C=C1CC[C@@H]1[C@@H]2C(=O)C[C@@]2(C)[C@H]1CC[C@]2(O)C(=O)COC(=O)CN=C=S | ~ 2 uM |

Please turn your attention to the following entry.
Check the records and state Activity for CCCC1O[C@@H]2C[C@H]3[C@@H]4CCC5=CC(=O)C=C[C@]5(C)[C@H]4[C@@H](O)C[C@]3(C)[C@]2(C(=O)COC(=O)CN=C=S)O1 (stereo partly specified)
~ 2 uM
